tested on: SR leukemia; assay: NCI tumour cell line growth inhibition, 48 h
value kind: TGI

Value of measured TGI for the entry S=C1c2ccccc2NC(=NC2CCCC2)C2CSCN12 (stereo not drawn) : > 100 µM

Value of measured TGI for the entry CSc1nc(NC2CCCC2)c2cc[nH]c2n1 : 61.6 µM

Value of measured TGI for the entry O=c1oc2cc(OS(=O)(=O)c3ccc(F)cc3)ccc2c2c1CCCCC2 : > 100 µM

Value of measured TGI for the entry N=C(N)SCCON1C(=O)c2ccccc2C1=O : > 100 µM

Value of measured TGI for the entry Cc1c(-c2c(C)c3ccccc3n2S(=O)(=O)c2ccccc2)n(S(=O)(=O)c2ccccc2)c2ccccc12 : > 100 µM

Value of measured TGI for the entry CC1=NOC2(C1)/C(=N/O)CCC/C2=N\O (stereo not drawn) : > 100 µM

Value of measured TGI for the entry Cn1ccnc1S/C(=C\C=C(C#N)C#N)c1ccc(Cl)cc1 : 0.367 µM

###

Known TGI of a selection of molecules
tested on: SK-OV-3 ovarian; test: NCI tumour cell line growth inhibition, 48 h

1) Cc1cn(C2CC(n3cc(Cn4cc(F)c(=O)[nH]c4=O)nn3)C(CO)O2)c(=O)[nH]c1=O (centres undefined) ... > 100 µM
2) CS(=O)(=O)CCNCc1nc(-c2ccc3ncnc(Nc4ccc(F)c(Cl)c4)c3c2)cs1 ... 11 µM
3) COc1ccc2nc(N/N=C(\C)c3ccccn3)cc(C)c2c1 ... 2.08 µM

Value of measured TGI for the entry CCC(C)[C@H](NC(=O)N[C@H](C)c1ccccc1)C(=O)OC (some centres undefined) : > 100 µM

Value of measured TGI for the entry N=C1C(c2nc(-c3ccc(Br)cc3)cs2)=C(O)CN1Cc1cccnc1 : > 100 µM

Value of measured TGI for the entry Cc1ccc(F)cc1NC(=O)O/N=C(\Cl)C(C)C : 36.9 µM

Value of measured TGI for the entry O=C1C(=O)N(C(=O)c2ccc(Cl)c(Cl)c2)c2ccccc21 : > 100 µM

###

test system: NCI-H23 lung; test: NCI tumour cell line growth inhibition, 48 h
value kind: TGI (µM)
Only the number, expressed in µM, is required.

Examples with their reported TGI follow.
1. COc1cc(O)c([C@@H]2C[C@H](CCc3ccc(O)cc3)O[C@H](c3ccc(O)cc3)C2)c(O)c1C(=O)/C=C/c1ccc(O)cc1 ... 5.71
2. CCCCCc1cc(OC(=O)c2c(O)cc(OC)cc2CCCCC)cc(O)c1C(=O)O ... 27.1
3. CNC(=O)c1cc(OC2CCC(NC(=O)Nc3ccc(Cl)c(C(F)(F)F)c3)CC2)ccn1 (centres undefined) ... 20.4

Value of measured TGI for the entry CC[C@H](C)N(CCN)C(=O)c1cc2ccccc2c(-c2ccccc2Cl)n1 : 28.6

###

test system: MCF7 breast; assay: NCI tumour cell line growth inhibition, 48 h; in the data active means GI50 below about 0.43 µM; inactive means the rest
The reply should be one of these categories: True (active), False (inactive)

1) CCC[CH2][Sn-]([CH2]CCC)([CH2]CCC)[O]c1cc(Cl)c(Cl)cc1Cl ... True

Could you now consider this next compound?
(Q) Dear all, I need the recorded test outcome for COc1cc(-c2nn(-c3ccc(NC(=O)c4ccc(Cl)c(Cl)c4)cc3)cc2-c2ccncc2)ccc1Cl , thank you.
(A) False

###

system: M14 melanoma; test: NCI tumour cell line growth inhibition, 48 h
value kind: TGI

Examples with their reported TGI follow.
1. CC1(C)OP23(NC(=O)OC2(C(F)(F)F)c2ccccc2O3)OC1(C)C (stereo unspecified) ... > 100 µM
2. CC(=O)n1c(COS(C)(=O)=O)nc2ccccc21 ... > 100 µM
3. N#Cc1cn(C2OC(CO)C(O)C2O)c2ncnc(N)c12 (stereo unspecified) ... 21.9 µM
4. Cc1c(C)c(C)c(-n2[nH]c(=O)n(C)c2=O)c(C)c1C ... > 100 µM
5. C=CCC(C)C12CCNC(Cc3ccc(O)cc31)C2C (stereo unspecified) ... > 100 µM

API: the following record is the query input.
Value of measured TGI for the entry O=C(Nc1sccc1S(=O)(=O)c1ccccc1)c1cccnc1 : > 100 µM

###

tested on: LOX IMVI melanoma; test: NCI tumour cell line growth inhibition, 48 h
TGI vs 20 µM: at or above is satisfied, below is not satisfied.

Field: example entries. Status: answers known.
1. O=C(Nc1ccccc1)O/N=C(/CBr)c1ccccc1 ... not satisfied
2. CCc1cccc(C(C)C)c1NC(=O)C(=O)C(Cc1nc2ccccc2[nH]c1=O)C(=O)OC (stereo not given) ... satisfied
3. CC(C)(CN)CN ... satisfied

Could you now consider this next compound?
(Q) API: above_or_equal(metric=TGI, cutoff=20 µM) for item Cc1ccc(C(=O)OC[C@H]2CC[C@@H](n3cc(N(C)C4CCCCC4)c(=O)[nH]c3=O)O2)cc1
(A) satisfied

###

test system: OVCAR-4 ovarian; assay: NCI tumour cell line growth inhibition, 48 h
value kind: TGI

OVCAR-4 ovarian data for COc1ccc(N2C=Nn3c(nc4sc(C)c(C)c4c3=O)C2)cc1 ; its TGI: > 100 µM

OVCAR-4 ovarian data for CC(C)Oc1c(-c2c(OC(C)C)c(=O)c2=O)c(=O)c1=O ; its TGI: > 62.9 µM

OVCAR-4 ovarian data for COc1cc2c(cc1OC)C(=O)/C(=C/c1cccc(OCC(=O)c3ccccc3)c1)C2 ; its TGI: > 100 µM

OVCAR-4 ovarian data for CCOc1ccccc1NC(=O)C(=O)CC(=O)c1c(C)n([O-])c2ccccc2[n+]1=O ; its TGI: > 100 µM

OVCAR-4 ovarian data for O=C(Nc1sccc1S(=O)(=O)c1ccccc1)c1cccnc1 ; its TGI: > 100 µM

###

system: U251 CNS
Non-standard residues stand in square brackets, D forms with d. Residues, ends and D or L forms follow the SMILES beside them. *: point of attachment. ONb = O=[N+]([O-])c1ccc(CO*)cc1; AllylGly = C=CC[CH](N)C(=O)O; Boc = CC(C)(C)OC(=O)*
The reply should be one of these categories: Y for active, N for inactive

Field: example entries. Status: answers known.
1. CCOC(=O)c1c2c(n3ccc(NC(=O)CCN4CCCC4)cc13)C(=O)c1ncccc1C2=O ... N
2. O=C(NNc1nc(Cl)nc(N2CCN(C(c3ccccc3)c3ccccc3)CC2)n1)c1ccccc1 ... N
3. O=C(CN1CCN(c2ncccn2)CC1)Nc1ccc(Cl)cc1C(=O)c1ccccc1Cl ... N

(Q) Dear all, I need the recorded test outcome for CCC[CH2][Sn-]([CH2]CCC)([CH2]CCC)[O]c1cc(Cl)c(Cl)cc1Cl , thank you.
(A) Y

(Q) Dear all, I need the recorded test outcome for C=C1C(=O)O[C@H]2[C@H]1CC/C(COC(=O)c1cc3cc(F)ccc3[nH]1)=C\CC[C@@]1(C)O[C@@H]21 , thank you.
(A) N

(Q) Dear all, I need the recorded test outcome for COc1ccc2c(c1)/C(=C\c1c(C)nc3sc(C)cn13)C(=O)N2C , thank you.
(A) N

(Q) Dear all, I need the recorded test outcome for C=CCC(NC(=O)OC(C)(C)C)C(=O)NC(CCC(=O)OCc1ccc([N+](=O)[O-])cc1)C(N)=O (centres undefined) (Boc-[AllylGly]-Glu(ONb)-NH2; configuration not given here) , thank you.
(A) N

(Q) Dear all, I need the recorded test outcome for COc1ccc2nc(N/N=C(\C)c3ccccn3)cc(C)c2c1 , thank you.
(A) Y

###

Known TGI of a selection of molecules
tested on: SK-MEL-28 melanoma; assay: NCI tumour cell line growth inhibition, 48 h

Examples with their reported TGI follow.
1) CC(=O)NNc1nc(C)c(C(/C=C/c2ccc3c(c2)OCO3)=N/Nc2ccccc2)s1 ... > 100 µM
2) Oc1ccc(/C=C\c2nnc(/C=C\c3ccc(O)c(O)c3)s2)cc1O ... 25.2 µM
3) COC(=O)C1CC2(CC3=C1CCCC3)OCCO2 (configuration not stated) ... > 100 µM
4) Oc1ccc(Cl)cc1C1=N/C(=N\CN2CCN(C/N=C3/N=C(c4cc(Cl)ccc4O)CC(c4ccccc4)N3)CC2)NC(c2ccccc2)C1 (configuration not stated) ... > 100 µM
5) COc1cc(CCc2ccc(OCCN(C)C)cc2)cc(OC)c1OC ... > 100 µM
6) COC(=O)/C=C/c1ccccc1N=[S@](C)(=O)c1ccc(C)cc1 ... > 100 µM
7) Cc1ccc(C(=O)N(C2CCCCC2)C2CCCCC2)cc1N=NN(C)C ... 17.9 µM
8) CC(=O)C(C(C)=O)=C1CCCC(O)O1 (configuration not stated) ... > 100 µM
9) CCOC(=O)/C(=C\NCC(O)c1ccccc1)c1nc2ccccc2[nH]1 (configuration not stated) ... 39.6 µM
10) CC(=O)Nc1ccc2c(c1)c(C1=C(c3cn(C)c4ccccc34)C(=O)NC1=O)cn2C ... > 25 µM

Value of measured TGI for the entry N#CCC(=O)Nc1cccc(C(F)(F)F)c1 : > 100 µM

Value of measured TGI for the entry C=CCn1c2c(c3ccccc3c1=O)C(=O)c1ccccc1-2 : > 100 µM

Value of measured TGI for the entry Cn1c2c(c3ccccc31)CCN(CCCCN1CCc3c(n(C)c4ccccc34)C1=O)C2 : > 100 µM

Value of measured TGI for the entry O=C(Nc1ccccc1F)c1c(O)nc2sccn2c1=O : > 10 µM

Value of measured TGI for the entry CCN(CC)Cc1nc2sc3c(c2c(=O)n1-c1ccccc1)CCCC3 : > 100 µM

Value of measured TGI for the entry CC1(C)OP23(NC(=O)OC2(C(F)(F)F)c2ccccc2O3)OC1(C)C (configuration not stated) : > 100 µM

Value of measured TGI for the entry COc1ccc2c(c1)/C(=C\c1c(C)nc3sc(C)cn13)C(=O)N2C : 35.5 µM

Value of measured TGI for the entry COc1ccc2[nH]c3c(c2c1)CCN(C)CC3 : > 100 µM

Value of measured TGI for the entry CCC(CCCN)Nc1cc(OC)cc2cccnc12 (configuration not stated) : > 100 µM
